- System: HEK-293T
- assay-protocol: Multiplex assay against HEK293T
- Type: toxicity, cell-based
- study-conditions: human, 48 h, 10 µM, compound concentration 10 uM, replicate 2
Criterion: Population Membrane Permeable-Phenotype (%) strictly under 4%. Met: 1. Not met: 0.

Examples from the recorded data:
INSERT INTO assay_data (compound, assigned_class) VALUES
  ('Cc1c[nH]c2nccc(Oc3c(F)cc(Nc4cc(Cl)nc(N)n4)cc3F)c12 [BAY-549]', 1),
  ('CCc1ccc(OCc2ccccc2C(=O)Nc2ccc3nc(C)cc(N)c3c2)cc1.Cl', 0),
  ('CC1=C(C(=O)Nc2cc3cn[nH]c3cc2F)C(c2ccc(C(F)(F)F)cc2)CC(=O)N1 (centres undefined)', 0),
  ('COC(=O)C1=C(C)NC(C)=C(C(=O)OCCCN2CCC(c3ccccc3)(c3ccccc3)CC2)[C@H]1c1cccc([N+](=O)[O-])c1 [NIGULDIPINE]', 0),
  ('C[C@]12CC[C@@H]3c4ccc(O)cc4CC[C@H]3[C@@H]1CC[C@@H]2O [ESTRADIOL]', 1);

Exam item: Could you please tell me whether Population Membrane Permeable-Phenotype (%) recorded for CNC(=O)Nc1ccc(-c2nc(N3CC4CCC(C3)O4)c3cnn(C4CCC5(CC4)OCCO5)c3n2)cc1 is less than 4%?
Marked response: 1

Exam item: Could you please tell me whether Population Membrane Permeable-Phenotype (%) recorded for Cc1ccc2c(c1)c1c(n2CCc2ccc(C)nc2)CCN(C)C1 [LATREPIRDINE] is less than 4%?
Marked response: 1

====

- Test system: Fibroblast
- assay-protocol: Multiplex assay against human fibroblast
- Type: toxicity, cell-based
- study-conditions: 12 h, 10 µM, compound concentration 10 uM, replicate 1
measured-endpoint: Population Fragmented Nuclei (%)
Give bare numbers, in %.

Answered examples (4):
INSERT INTO assay_data (compound, target_under_test, measured_endpoint, unit_info, measured_number) VALUES
  ('C[C@]12CC[C@@H]3c4ccc(O)cc4CC[C@H]3[C@@H]1CC[C@@H]2O', 'Fibroblast', 'Population Fragmented Nuclei (%)', '%', 24),
  ('Cc1c[nH]c2nccc(Oc3c(F)cc(Nc4cc(Cl)nc(N)n4)cc3F)c12', 'Fibroblast', 'Population Fragmented Nuclei (%)', '%', 23),
  ('CC(C)NC(=O)N1CC[C@H](NC2=Nc3cc(F)ccc3N(CC(F)F)c3ccc(Cl)cc32)C1', 'Fibroblast', 'Population Fragmented Nuclei (%)', '%', 29),
  ('C=CC(=O)Nc1cccc(Oc2nc(Nc3ccc(N4CCN(C)CC4)cc3OC)ncc2Cl)c1', 'Fibroblast', 'Population Fragmented Nuclei (%)', '%', 39);

State recorded Population Fragmented Nuclei (%) for all listed compounds.
1. O=C(c1cc2c(cc1F)OC(c1ccc(F)cc1)(c1ccc(Cl)cc1Cl)O2)N1CCOCC1 (stereo not drawn)
2. CNC(=O)Nc1ccc2c(c1)[C@@]1(CC2)OC(=O)N(CC(=O)N(Cc2ccc(F)cc2)[C@@H](C)C(F)(F)F)C1=O
3. CC1=C(C(=O)Nc2cc3cn[nH]c3cc2F)C(c2ccc(C(F)(F)F)cc2)CC(=O)N1 (stereo not drawn)
4. CC(C)Oc1ccccc1C(=O)Nc1ccccc1C(=O)Nc1cccc(S(=O)(=O)C(F)(F)F)c1

Marked response:
[31, 24, 25, 39]

====

- Tested on: Fibroblast
- assay-protocol: Multiplex assay against human fibroblast
- Assay type: toxicity, cell-based
- study-conditions: 24 h, 10 µM, compound concentration 10 uM, replicate 1
Entries are sorted into classes by Population Healthy Nuclei (%) as follows: label 0: < 40%; label 1: ≥ 40% and < 50%; label 2: ≥ 50%

INSERT INTO results (compound, assigned_class) VALUES
  ('COC(=O)C1=C(C)NC(C)=C(C(=O)OCCCN2CCC(c3ccccc3)(c3ccccc3)CC2)[C@H]1c1cccc([N+](=O)[O-])c1', 'label 0'),
  ('CC(C)NC(=O)N1CC[C@H](NC2=Nc3cc(F)ccc3N(CC(F)F)c3ccc(Cl)cc32)C1', 'label 1'),
  ('CC(C)CC(=O)Nc1[nH]nc2c1CN(C(=O)C1CCN(C)CC1)C2(C)C', 'label 2'),
  ('Cc1c[nH]c2nccc(Oc3c(F)cc(Nc4cc(Cl)nc(N)n4)cc3F)c12', 'label 0'),
  ('Cc1cccc(CN2CCN(C(c3ccccc3)c3ccc(Cl)cc3)CC2)c1.Cl.Cl (stereo not given)', 'label 1'),
  ('CC(C)c1noc(N2CCC(COc3ccc(-c4ccc(S(C)(=O)=O)cc4)nc3)CC2)n1', 'label 1'),
  ('CC(C)Oc1ccccc1C(=O)Nc1ccccc1C(=O)Nc1cccc(S(=O)(=O)C(F)(F)F)c1', 'label 0'),
  ('Cl.O=C(O)c1cc(-c2ccc(C3CCNCC3)cc2)c2ccc(-c3ccc(C(F)(F)F)cc3)cc2c1', 'label 0');

API: the following record is the query input.
Exam item: Class? Entry: O=C(c1cc2c(cc1F)OC(c1ccc(F)cc1)(c1ccc(Cl)cc1Cl)O2)N1CCOCC1 (stereo not given)
Marked response: label 0

====

- Tested on: U2OS
- assay-protocol: Multiplex assay against U2OS
- Type: toxicity, cell-based
- study-conditions: human, 24 h, 1 µM, compound concentration 1 uM, replicate 2
For each of the molecules below, state its Population Membrane Permeable-Phenotype (%).
One number for each entry, in %.

INSERT INTO measurements (molecule, target_under_test, measured_number) VALUES
  ('C=CC(=O)Nc1ccc2[nH]c(=O)n(C3CCN(Cc4ccc(-c5nc6cc[nH]c(=O)c6cc5-c5ccccc5)cc4)CC3)c2c1 [Borussertib]', 'U2OS', 10),
  ('O=c1cc(N2CCOCC2)oc2c(-c3cccc4c3sc3ccccc34)cccc12', 'U2OS', 9),
  ('CC(C)NC(=O)N1CC[C@H](NC2=Nc3cc(F)ccc3N(CC(F)F)c3ccc(Cl)cc32)C1', 'U2OS', 6),
  ('CNC(=O)Nc1ccc(-c2nc(N3CC4CCC(C3)O4)c3cnn(C4CCC5(CC4)OCCO5)c3n2)cc1', 'U2OS', 8),
  ('CN1CCN(Cc2ccc(Nc3ncc(Cl)c(Nc4ccccc4S(=O)(=O)N(C)C)n3)cc2)CC1 [DUBERMATINIB]', 'U2OS', 4);

State recorded Population Membrane Permeable-Phenotype (%) for all listed molecules.
1. COc1cc(Nc2nccc(-c3cnn4nc(OC)ccc34)n2)cc(C(F)(F)F)c1
2. Cc1c[nH]c2nccc(Oc3c(F)cc(Nc4cc(Cl)nc(N)n4)cc3F)c12 [BAY-549]
3. O=c1[nH]c2ccccc2n1C1CCN(Cc2ccc(-c3[nH]c4cc5ncnc5cc4nc3-c3ccccc3)cc2)CC1

Marked response:
1. 4
2. 5
3. 14

====

- System: Fibroblast
- assay-protocol: Incucyte cell viability with human fibroblast; note: filed as whole numbers so only -1 and 0 and 1 occur
- Format: toxicity, cell-based
- study-conditions: 12 h, 10 µM, compound concentration 10 uM, replicate number 1, timepoint 12 hours
For each of the molecules below, state its Growth Rate.
Give bare numbers.

Answered examples (5):
INSERT INTO assay_data (molecule, measured_endpoint, measured_number) VALUES
  ('CC#CC(=O)N1CCC[C@H]1c1nc(-c2ccc(C(=O)Nc3ccccn3)cc2)c2c(N)nccn12', 'Growth Rate', 0),
  ('COc1cc(-c2cn([C@H]3CCc4ccccc4N(CC(F)(F)F)C3=O)nn2)ccc1-n1ccc(C)n1', 'Growth Rate', 0),
  ('C#Cc1cccc(Nc2ncnc3cc(OCCOC)c(OCCOC)cc23)c1', 'Growth Rate', 0),
  ('Cc1cnc(-c2cc(Cl)ccc2F)cc1-n1c(=O)n(CC(N)=O)c2ccccc21', 'Growth Rate', 1),
  ('COC(=O)/C=C/c1cccc(N(Cc2ccc(-c3ccc(N(C)C)cc3)cc2)C(=O)C2CCCCC2)c1', 'Growth Rate', 1);

State recorded Growth Rate for all listed molecules.
1. Cc1cc([C@@H](C)Nc2ccccc2C(=O)O)c2nc(N3CCOCC3)cc(=O)n2c1
2. O=C(Cc1ccccc1)Nc1nc2ccc(Cl)cc2c2nc(-c3ccco3)nn12
3. Cc1ccc2c(c1)c1c(n2CCc2ccc(C)nc2)CCN(C)C1 [LATREPIRDINE]

Marked response:
[0, 0, 0]

====

- Test system: U2OS
- assay-protocol: Multiplex assay against U2OS
- Format: toxicity, cell-based
- study-conditions: human, 12 h, 10 µM, compound concentration 10 uM, replicate 1
measured-endpoint: Population Mitochondria Different-Phenotype (%)
Give bare numbers, in %.

Answered examples (6):
INSERT INTO measurements (compound, measured_number) VALUES
  ('CC(C)NC(=O)N1CC[C@H](NC2=Nc3cc(F)ccc3N(CC(F)F)c3ccc(Cl)cc32)C1', 52),
  ('CC(C)c1noc(N2CCC(COc3ccc(-c4ccc(S(C)(=O)=O)cc4)nc3)CC2)n1 [GSK-1292263]', 18),
  ('Cc1nc(N2CC[C@H](O)C2)ncc1-c1cc(C(F)(F)F)cc2[nH]ncc12', 22),
  ('Cc1ccc2c(c1)c1c(n2CCc2ccc(C)nc2)CCN(C)C1 [LATREPIRDINE]', 97),
  ('C=CC(=O)Nc1cccc(Sc2nc(Nc3ccc(N4CCN(C)CC4)cc3)ncc2Cl)c1', 11),
  ('COc1cc(Nc2nccc(-c3cnn4nc(OC)ccc34)n2)cc(C(F)(F)F)c1', 46);

State recorded Population Mitochondria Different-Phenotype (%) for all listed compounds.
1. COC(=O)C1=C(C)NC(C)=C(C(=O)OCCCN2CCC(c3ccccc3)(c3ccccc3)CC2)[C@H]1c1cccc([N+](=O)[O-])c1 [NIGULDIPINE]
2. CC(C)CC(=O)Nc1[nH]nc2c1CN(C(=O)C1CCN(C)CC1)C2(C)C [PHA-793887]
3. CC1=C(C(=O)Nc2cc3cn[nH]c3cc2F)C(c2ccc(C(F)(F)F)cc2)CC(=O)N1 (configuration not stated)
4. COc1ccccc1CN[C@H]1C2CCN(CC2)[C@H]1C(c1ccccc1)c1ccccc1 [CP-96345]

Marked response:
100
29
9
87

State recorded Population Mitochondria Different-Phenotype (%) for all listed compounds.
1. CC(C)(C)NC[C@H](O)COc1nsnc1N1CCOCC1 [TIMOLOL]
2. CC(C)OC(=O)N1CCC(Oc2ncnc3c2cnn3-c2ccc(S(C)(=O)=O)cc2F)CC1
3. CCc1nn(CCCN2CCN(c3cccc(Cl)c3)CC2)c(=O)n1CCOc1ccccc1.Cl [NEFAZODONE HYDROCHLORIDE]

Marked response:
1. 8
2. 19
3. 100

State recorded Population Mitochondria Different-Phenotype (%) for all listed compounds.
1. Cc1cccc(CN2CCN(C(c3ccccc3)c3ccc(Cl)cc3)CC2)c1.Cl.Cl (configuration not stated)
2. O=c1cc(N2CCOCC2)oc2c(-c3cccc4c3sc3ccccc34)cccc12

Marked response:
[73, 73]

State recorded Population Mitochondria Different-Phenotype (%) for all listed compounds.
1. O=c1[nH]c2ccccc2n1C1CCN(Cc2ccc(-c3[nH]c4cc5ncnc5cc4nc3-c3ccccc3)cc2)CC1
2. Cl.O=C(O)c1cc(-c2ccc(C3CCNCC3)cc2)c2ccc(-c3ccc(C(F)(F)F)cc3)cc2c1

Marked response:
[61, 17]

Attribution: ChEMBL document CHEMBL4689842
